// values below are AC50; system is Muscarinic acetylcholine receptor M2 (Homo sapiens); also: assay procedure not described here
Sequence (P08172 whole entry): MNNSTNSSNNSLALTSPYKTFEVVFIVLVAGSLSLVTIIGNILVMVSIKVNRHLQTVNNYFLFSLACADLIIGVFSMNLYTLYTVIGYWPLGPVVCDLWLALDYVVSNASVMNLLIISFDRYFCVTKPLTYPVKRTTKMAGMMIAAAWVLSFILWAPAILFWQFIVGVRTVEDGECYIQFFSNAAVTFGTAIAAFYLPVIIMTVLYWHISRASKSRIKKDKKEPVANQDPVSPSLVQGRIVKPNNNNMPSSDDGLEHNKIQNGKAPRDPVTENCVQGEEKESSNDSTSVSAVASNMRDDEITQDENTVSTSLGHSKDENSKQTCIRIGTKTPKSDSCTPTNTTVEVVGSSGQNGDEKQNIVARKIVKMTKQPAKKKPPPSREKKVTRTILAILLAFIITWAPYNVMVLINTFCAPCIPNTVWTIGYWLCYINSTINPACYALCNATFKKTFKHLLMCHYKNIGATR
QUANTITY MEASURED: AC50

compound=O=NN(CCCl)C(=O)NCCCl quantity_measured=AC50 test_result="> 30 µM"
compound=COc1ccc(C(=O)c2ccccc2)c(O)c1 quantity_measured=AC50 test_result="> 30 µM"
compound="CN1CCc2c(c3ccccc3n2Cc2ccccc2)C1 [MEBHYDROLIN]" quantity_measured=AC50 test_result="0.268 µM"
compound=COCC(=O)O[C@]1(CCN(C)CCCc2nc3ccccc3[nH]2)CCc2cc(F)ccc2[C@@H]1C(C)C quantity_measured=AC50 test_result="3.85 µM"
compound=Cc1cnc(C(=O)O)c[n+]1[O-] quantity_measured=AC50 test_result="> 30 µM"
compound=CC1=C(/C=C/C(C)=C/C=C/C(C)=C\C(=O)O)C(C)(C)CCC1 quantity_measured=AC50 test_result="> 30 µM"
compound=COc1cccc2c1C(=O)c1c(O)c3c(c(O)c1C2=O)C[C@@](O)(C(=O)CO)C[C@@H]3O[C@H]1C[C@H](N)[C@H](O[C@@H]2CCCCO2)[C@H](C)O1 quantity_measured=AC50 test_result="> 30 µM"
compound="C#C[C@]1(OC(C)=O)CC[C@H]2[C@@H]3CCC4=CC(=O)CC[C@@H]4[C@H]3CC[C@@]21C [NORETHINDRONE ACETATE]" quantity_measured=AC50 test_result="9.44 µM"
compound=OCc1ccccc1 quantity_measured=AC50 test_result="> 30 µM"
compound=Cc1ccc(C(C)C)c(O)c1 quantity_measured=AC50 test_result="> 30 µM"
compound=Cc1ccc2c([nH]c(=O)c3c(=O)cc(C(=O)OCCC(C)C)oc32)c1C quantity_measured=AC50 test_result="11.8 µM"
compound=Cc1cn(-c2cc(NC(=O)c3ccc(C)c(Nc4nccc(-c5cnccn5)n4)c3)cc(C(F)(F)F)c2)cn1 quantity_measured=AC50 test_result="> 30 µM"
compound="CN1C(C(=O)Nc2ccccn2)=C(OC(=O)/C=C/c2ccccc2)c2ccccc2S1(=O)=O [PIROXICAM CINNAMATE]" quantity_measured=AC50 test_result="> 30 µM"
compound="CCOC1O[C@H]([C@@H](COCc2ccccc2)OCc2ccccc2)[C@H](OCc2ccccc2)[C@H]1O (stereo partly specified) [TRIBENOSIDE]" quantity_measured=AC50 test_result="> 30 µM"
compound=COC(=O)N[C@H](C(=O)N1CC2(CC2)C[C@H]1c1ncc(-c2ccc3c(c2)C(F)(F)c2cc(-c4ccc5nc([C@@H]6[C@H]7CC[C@H](C7)N6C(=O)[C@@H](NC(=O)OC)C(C)C)[nH]c5c4)ccc2-3)[nH]1)C(C)C quantity_measured=AC50 test_result="> 30 µM"
compound=CC1(C)S[C@@H]2[C@H](NC(=O)[C@H](NC(=O)c3cnc4cccnc4c3O)c3ccccc3)C(=O)N2[C@H]1C(=O)O quantity_measured=AC50 test_result="> 30 µM"
